Biological target: dopamine receptor DopEcR (Helicoverpa armigera, UniProt A0A386QW71, T113A/W160A/Y109A/Y68A)
Construct: DopEcR-M-GFP-His, isolated from Sf9 cells
Sequence (A0A386QW71 entry or part of it Y68A/Y109A/T113A/W160A): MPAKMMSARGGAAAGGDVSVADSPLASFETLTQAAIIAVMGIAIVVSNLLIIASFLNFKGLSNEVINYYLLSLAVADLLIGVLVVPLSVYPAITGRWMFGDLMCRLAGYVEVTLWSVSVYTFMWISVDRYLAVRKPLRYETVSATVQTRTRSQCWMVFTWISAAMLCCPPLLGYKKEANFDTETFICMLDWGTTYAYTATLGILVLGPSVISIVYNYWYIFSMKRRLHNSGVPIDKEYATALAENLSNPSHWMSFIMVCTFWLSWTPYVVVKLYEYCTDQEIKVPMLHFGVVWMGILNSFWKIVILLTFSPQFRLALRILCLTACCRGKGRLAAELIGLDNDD
Experiment: saturation binding with isolated mutant receptor, […] enzyme immunoassay (lower Bmax)
PROPERTY NAME: pKd
Scale: pKd equals -log10([C]), with [C] in mol/L.

// Input: CC(C)(O)CC[C@@H](O)[C@](C)(O)[C@H]1CC[C@@]2(O)C3=CC(=O)[C@@H]4C[C@@H](O)[C@@H](O)C[C@]4(C)[C@H]3CC[C@]12C [20E, 20-hydroxyecdysone] . Output its pKd only. 7.69
